- System: HCC-2998 colon
- protocol_description: NCI-60 one-dose screen, 48 h
- run_conditions: 10 µM unless noted
This is part of a sample that, as a whole, favours compounds with a hit. Of some 83,000 tested, about 20% had one in any assay. Activity calls are given as the source filed them. The calls were made as follows: active = growth percent below 10; inactive = the rest.
In this exercise, the only acceptable responses are active, inactive

Here's what some known entries look like.
[
  {
    "molecule": "Oc1ccc2cc(Br)ccc2c1-c1c(O)ccc2cc(Br)ccc12",
    "qualitative_label": "inactive"
  },
  {
    "molecule": "COc1ccncc1S(=O)(=O)NC(=O)Nc1ccc(Cl)c(Cl)c1",
    "qualitative_label": "inactive"
  },
  {
    "molecule": "CC(C)(C)n1cc(-c2ccnc(NCCCNS(=O)(=O)c3cccc(F)c3)c2)c(-c2cccc(O)c2)n1",
    "qualitative_label": "inactive"
  },
  {
    "molecule": "COc1ccc(Nc2ncccc2C(=O)NCc2cn(Cc3cccc(Oc4ccccc4)c3)nn2)c(OC)c1",
    "qualitative_label": "active"
  },
  {
    "molecule": "O=C1C2(c3ccccc3)C(c3ccccc3)=C(c3ccccc3)C1(c1ccccc1)C1CC=CC12 (centres undefined)",
    "qualitative_label": "inactive"
  },
  {
    "molecule": "O=c1[nH]c2ccc(Br)cc2c2c1C(c1ccc(Cl)cc1)c1c(ncn3nc(-c4ccco4)nc13)O2 (centres undefined)",
    "qualitative_label": "inactive"
  },
  {
    "molecule": "O=C(Nc1ccncc1)C(=O)c1cn(S(=O)(=O)c2ccc(Cl)cc2)c2ccccc12",
    "qualitative_label": "inactive"
  },
  {
    "molecule": "COc1cc2c(cc1OCCCCCn1c3ccccc3c3ccccc31)N=C[C@@H]1CCCN1C2=O",
    "qualitative_label": "active"
  }
]

Consider the record given below.
I'd appreciate the recorded outcome for C=C1CC2(OC1=O)C(=O)N(CCCN1C(=O)C3(CC(=C)C(=O)O3)c3ccccc31)c1ccccc12 (centres undefined) from this test. inactive

The measured values listed here are drawn from PubChem BioAssay (NCI).
